# protocol-notes: in vitro
# condition: human, CC50 (uM) [SG]
Each entry below carries its reported CC50.
Number only, in µM; omit the unit.

Solved entries:
{"mol": "CSc1ccc(Oc2ccc(Br)cc2CN(C)C)cc1C", "recorded-result": 54.8}
{"mol": "N[C@@H]1CC[C@H](c2ccc(Cl)c(Cl)c2)c2ccccc21", "recorded-result": 8.1}
{"mol": "CSc1ccc(Oc2ccc(S(N)(=O)=O)cc2CNCCCN(C)C)cc1C", "recorded-result": 17.8}

input: Write down CC50 measured for item CC(=O)Nc1ccc2c(c1)[C@@H](N(C)CCO)CC[C@H]2c1ccc(Cl)c(Cl)c1
output: 44.9
